Tested on: LXF-289
Assay: relative viability (nuclei count vs DMSO), 5 days (fraction); higher = more cells survive
Conditions: first compound 0.03162 µM
Mark label 1 only when relative viability stays strictly below 0.8. Values equal to the cut-off are label 0.

Past entries and their recorded results:
CCN(CC)CCCCNc1ncc2cc(-c3cc(OC)cc(OC)c3)c(NC(=O)NC(C)(C)C)nc2n1 + Cc1cc(Nc2cc(N3CCN(C)CC3)nc(Sc3ccc(NC(=O)C4CC4)cc3)n2)n[nH]1 [Tozasertib] (partner 0.1 µM)    label 1
O=c1cc(N2CCOCC2)oc2c(-c3cccc4c3sc3ccccc34)cccc12 + Nc1nc2[nH]cc(CCc3ccc(C(=O)N[C@@H](CCC(=O)O)C(=O)O)cc3)c2c(=O)[nH]1 [Pemetrexed] (partner 0.2 µM)    label 0
CCN(CC)CCCCNc1ncc2cc(-c3cc(OC)cc(OC)c3)c(NC(=O)NC(C)(C)C)nc2n1 + CS(=O)(=O)CCNCc1ccc(-c2ccc3ncnc(Nc4ccc(OCc5cccc(F)c5)c(Cl)c4)c3c2)o1 [Lapatinib] (partner 2 µM)    label 0
CCN(CC)CCCCNc1ncc2cc(-c3cc(OC)cc(OC)c3)c(NC(=O)NC(C)(C)C)nc2n1 + CC(=O)c1c(C)c2cnc(Nc3ccc(N4CCNCC4)cn3)nc2n(C2CCCC2)c1=O [Palbociclib] (partner 0.5 µM)    label 1
CCN(CC)CCCCNc1ncc2cc(-c3cc(OC)cc(OC)c3)c(NC(=O)NC(C)(C)C)nc2n1 + CC1(C)CCC(c2ccc(Cl)cc2)=C(CN2CCN(c3ccc(C(=O)NS(=O)(=O)c4ccc(N[C@H](CCN5CCOCC5)CSc5ccccc5)c(S(=O)(=O)C(F)(F)F)c4)cc3)CC2)C1 [Navitoclax] (partner 0.5 µM)    label 0
O=c1cc(N2CCOCC2)oc2c(-c3cccc4c3sc3ccccc34)cccc12 + CC(=O)Nc1cccc(-n2c(=O)n(C3CC3)c(=O)c3c(Nc4ccc(I)cc4F)n(C)c(=O)c(C)c32)c1 [Trametinib] (partner 0.02 µM)    label 1
CCN(CC)CCCCNc1ncc2cc(-c3cc(OC)cc(OC)c3)c(NC(=O)NC(C)(C)C)nc2n1 + CC(C)C[C@H](NC(=O)[C@H](Cc1ccccc1)NC(=O)c1cnccn1)B(O)O [Bortezomib] (partner 0.002 µM)    label 0
O=c1cc(N2CCOCC2)oc2c(-c3cccc4c3sc3ccccc34)cccc12 + COc1cc2c(Oc3ccc(NC(=O)C4(C(=O)Nc5ccc(F)cc5)CC4)cc3F)ccnc2cc1OCCCN1CCOCC1 [Foretinib] (partner 0.25 µM)    label 0

Inquiry: I'd appreciate it if you could check whether O=c1cc(N2CCOCC2)oc2c(-c3cccc4c3sc3ccccc34)cccc12 + Nc1ncn([C@H]2C[C@H](O)[C@@H](CO)O2)c(=O)n1 [Decitabine] (partner 2 µM) has relative viability smaller than 0.8.
Reply text: label 1

Inquiry: I'd appreciate it if you could check whether O=c1cc(N2CCOCC2)oc2c(-c3cccc4c3sc3ccccc34)cccc12 + Cc1nc(Nc2ncc(C(=O)Nc3c(C)cccc3Cl)s2)cc(N2CCN(CCO)CC2)n1 [Dasatinib] (partner 0.075 µM) has relative viability smaller than 0.8.
Reply text: label 1

Inquiry: I'd appreciate it if you could check whether CCN(CC)CCCCNc1ncc2cc(-c3cc(OC)cc(OC)c3)c(NC(=O)NC(C)(C)C)nc2n1 + Nc1ncn([C@H]2C[C@H](O)[C@@H](CO)O2)c(=O)n1 [Decitabine] (partner 2 µM) has relative viability smaller than 0.8.
Reply text: label 1

All values here come from the supplement of paper PMC10307832.
